assay_system: Thioesterase GrsT homolog tycF (Brevibacillus brevis) (UniProt O30412)
assay_method_text: Catalytic efficiency (Kcat/Km) was determined
Design: unit not given here
measure: Ratio
Just the number, please, no unit attached.

CC(=O)NCCSC(=O)[C@H](CC(C)C)NC(=O)[C@H](CCCN)NC(=O)[C@@H](NC(=O)[C@H](Cc1ccc(O)cc1)NC(=O)[C@H](CCC(N)=O)NC(=O)[C@H](CC(N)=O)NC(=O)[C@@H](NC(=O)[C@H](Cc1ccccc1)NC(=O)[C@@H]1CCCN1C(=O)[C@H](N)Cc1ccccc1)C(C)C)C(C)C | 0.19

Let's switch to this molecule now.
stdin: // lookup Ratio for `CC(=O)NCCSC(=O)[C@H](CC(C)C)NC(=O)[C@H](CCCN)NC(=O)[C@@H](NC(=O)[C@H](Cc1ccc(O)cc1)NC(=O)[C@H](CCC(N)=O)NC(=O)[C@@H](NC(=O)[C@@H](Cc1ccccc1)NC(=O)[C@H](Cc1ccccc1)NC(=O)[C@@H]1CCCN1C(=O)[C@H](N)Cc1ccccc1)C(C)C)C(C)C`
stdout: 0.29

---

Let's look at some molecules and their measured Ratio.
assay_system: Thioesterase GrsT homolog tycF (Brevibacillus brevis)
assay_method_text: Catalytic efficiency (Kcat/Km) was determined
Design: unit not given here
Just the number, please, no unit attached.

CC(=O)NCCSC(=O)[C@H](CC(C)C)NC(=O)[C@H](CCCN)NC(=O)[C@@H](NC(=O)[C@H](Cc1ccc(O)cc1)NC(=O)[C@H](CCC(N)=O)NC(=O)[C@H](CC(N)=O)NC(=O)[C@H](CC(N)=O)NC(=O)[C@H](Cc1ccccc1)NC(=O)[C@@H]1CCCN1C(=O)[C@H](N)Cc1ccccc1)C(C)C | 0.42
CC(=O)NCCSC(=O)[C@H](CC(C)C)NC(=O)[C@H](CCCN)NC(=O)[C@H](CC(N)=O)NC(=O)[C@H](Cc1ccc(O)cc1)NC(=O)[C@H](CCC(N)=O)NC(=O)[C@H](CC(N)=O)NC(=O)[C@@H](Cc1ccccc1)NC(=O)[C@H](Cc1ccccc1)NC(=O)[C@@H]1CCCN1C(=O)[C@H](N)Cc1ccccc1 | 0.22

Let's switch to this molecule now.
stdin: // lookup Ratio for `CC(=O)NCCSC(=O)[C@H](CC(C)C)NC(=O)[C@H](CCCN)NC(=O)[C@@H](NC(=O)[C@H](Cc1ccc(O)cc1)NC(=O)[C@H](CCC(N)=O)NC(=O)[C@H](CC(N)=O)NC(=O)[C@H](CS)NC(=O)[C@H](Cc1ccccc1)NC(=O)[C@@H]1CCCN1C(=O)[C@H](N)Cc1ccccc1)C(C)C`
stdout: 0.25

---

Let's look at some molecules and their measured k cat.
assay_system: Thioesterase GrsT homolog tycF (Brevibacillus brevis)
Sequence (whole entry): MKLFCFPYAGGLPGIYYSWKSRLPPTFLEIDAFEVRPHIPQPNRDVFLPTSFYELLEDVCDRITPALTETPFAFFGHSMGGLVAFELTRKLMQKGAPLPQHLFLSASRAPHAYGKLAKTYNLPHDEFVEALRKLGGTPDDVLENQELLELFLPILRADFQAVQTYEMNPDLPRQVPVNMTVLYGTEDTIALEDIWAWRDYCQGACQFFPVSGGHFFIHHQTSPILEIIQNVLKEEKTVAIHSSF
assay_method_text: Apparent kinetic constant (Kcat) for tyrocidine thioesterase amplified from Bacillus brevis (ATCC8185)
Where a SMILES comes first, the peptide text is derived from it. [ ]: non-standard residue; d: D form. The star is where a group is joined. SCH2CH2NHAc = CC(=O)NCCS*; Orn = NCCC[C@H](N)C(=O)O
Write down the numeric answer in s⁻¹ and omit the unit.

Reference set (8 entries):
CC(=O)NCCSC(=O)[C@H](CC(C)C)NC(=O)[C@H](CCCN)NC(=O)[C@@H](NC(=O)[C@H](Cc1ccc(O)cc1)NC(=O)[C@H](CCC(N)=O)NC(=O)[C@H](CC(N)=O)NC(=O)[C@@H](Cc1ccccc1)NC(=O)[C@H](Cc1ccccc1)NC(=O)[C@@H]1CCCN1C(=O)[C@H](N)Cc1ccccc1)C(C)C (stereo in doubt; form 1) | 0.733
CC(=O)NCCSC(=O)[C@H](CC(C)C)NC(=O)[C@H](CCCN)NC(=O)[C@@H](NC(=O)[C@H](Cc1ccc(O)cc1)NC(=O)[C@H](CC(C)C)NC(=O)[C@H](CC(N)=O)NC(=O)[C@@H](Cc1ccccc1)NC(=O)[C@H](Cc1ccccc1)NC(=O)[C@@H]1CCCN1C(=O)[C@H](N)Cc1ccccc1)C(C)C | 0.717
CC(=O)NCCSC(=O)[C@H](CC(C)C)NC(=O)[C@H](CCCN)NC(=O)[C@@H](NC(=O)[C@H](CC(N)=O)NC(=O)[C@H](CCC(N)=O)NC(=O)[C@H](CC(N)=O)NC(=O)[C@@H](Cc1ccccc1)NC(=O)[C@H](Cc1ccccc1)NC(=O)[C@@H]1CCCN1C(=O)[C@H](N)Cc1ccccc1)C(C)C | 0.333
CC(=O)NCCSC(=O)[C@H](CC(C)C)NC(=O)[C@H](CCCN)NC(=O)[C@@H](NC(=O)[C@H](Cc1ccc(O)cc1)NC(=O)[C@H](CCC(N)=O)NC(=O)[C@H](CC(N)=O)NC(=O)[C@H](CCC(N)=O)NC(=O)[C@H](Cc1ccccc1)NC(=O)[C@@H]1CCCN1C(=O)[C@H](N)Cc1ccccc1)C(C)C | 0.117
CC(=O)NCCSC(=O)[C@H](CC(C)C)NC(=O)[C@H](CCCN)NC(=O)[C@@H](NC(=O)[C@H](Cc1ccc(O)cc1)NC(=O)[C@H](CCC(N)=O)NC(=O)[C@H](CC(N)=O)NC(=O)[C@@H](Cc1ccccc1)NC(=O)[C@H](Cc1ccccc1)NC(=O)[C@H](CC(N)=O)NC(=O)[C@H](N)Cc1ccccc1)C(C)C | 0.117
CC[C@H](C)[C@H](NC(=O)[C@H](Cc1ccccc1)NC(=O)[C@@H]1CCCN1C(=O)[C@H](N)Cc1ccccc1)C(=O)N[C@@H](CC(N)=O)C(=O)N[C@@H](CCC(N)=O)C(=O)N[C@@H](Cc1ccc(O)cc1)C(=O)N[C@H](C(=O)N[C@@H](CCCN)C(=O)N[C@@H](CC(C)C)C(=O)SCCNC(C)=O)C(C)C | 0.183
CC(=O)NCCSC(=O)[C@H](CC(C)C)NC(=O)[C@H](CCCN)NC(=O)[C@@H](NC(=O)[C@H](Cc1ccc(O)cc1)NC(=O)[C@H](CCC(N)=O)NC(=O)[C@H](CC(N)=O)NC(=O)[C@@H](Cc1ccccc1)NC(=O)[C@H](Cc1ccccc1)NC(=O)[C@H](C)NC(=O)[C@H](N)Cc1ccccc1)C(C)C (H-[dF]AF[dF]NQYV[Orn]L-SCH2CH2NHAc) | 0.117
CC(=O)NCCSC(=O)[C@H](CC(C)C)NC(=O)[C@H](CCCN)NC(=O)[C@@H](NC(=O)[C@H](Cc1ccc(O)cc1)NC(=O)[C@H](CCC(N)=O)NC(=O)[C@H](CC(N)=O)NC(=O)[C@H](CO)NC(=O)[C@H](Cc1ccccc1)NC(=O)[C@@H]1CCCN1C(=O)[C@H](N)Cc1ccccc1)C(C)C | 0.13

stdin: // lookup k cat for `CC[C@@H](C)[C@H](NC(=O)[C@H](CC(N)=O)NC(=O)[C@@H](Cc1ccccc1)NC(=O)[C@H](Cc1ccccc1)NC(=O)[C@@H]1CCCN1C(=O)[C@H](N)Cc1ccccc1)C(=O)N[C@@H](Cc1ccc(O)cc1)C(=O)N[C@H](C(=O)N[C@@H](CCCN)C(=O)N[C@@H](CC(C)C)C(=O)SCCNC(C)=O)C(C)C`
stdout: 0.123

stdin: // lookup k cat for `CC(=O)NCCSC(=O)[C@H](CC(C)C)NC(=O)[C@H](CCCN)NC(=O)[C@H](CCCN=C(N)N)NC(=O)[C@H](Cc1ccc(O)cc1)NC(=O)[C@H](CCC(N)=O)NC(=O)[C@H](CC(N)=O)NC(=O)[C@@H](Cc1ccccc1)NC(=O)[C@H](Cc1ccccc1)NC(=O)[C@@H]1CCCN1C(=O)[C@H](N)Cc1ccccc1`
stdout: 0.15

stdin: // lookup k cat for `CC(=O)NCCSC(=O)[C@H](CC(C)C)NC(=O)[C@H](CCCN)NC(=O)[C@@H](NC(=O)[C@H](Cc1ccc(O)cc1)NC(=O)[C@H](CCC(N)=O)NC(=O)[C@H](CC(N)=O)NC(=O)[C@H](CCC(=O)O)NC(=O)[C@H](Cc1ccccc1)NC(=O)[C@@H]1CCCN1C(=O)[C@H](N)Cc1ccccc1)C(C)C`
stdout: 0.11

stdin: // lookup k cat for CC(=O)NCCSC(=O)[C@H](CC(C)C)NC(=O)[C@H](CCCN)NC(=O)[C@@H](NC(=O)[C@H](Cc1ccc(O)cc1)NC(=O)[C@H](CCC(N)=O)NC(=O)[C@H](CC(N)=O)NC(=O)[C@@H](Cc1ccccc1)NC(=O)[C@H](Cc1ccccc1)NC(=O)[C@@H]1CCCN1C(=O)[C@H](N)Cc1ccccc1)C(C)C (stereo in doubt; form 2)
stdout: 0.55

stdin: // lookup k cat for `CC(=O)NCCSC(=O)[C@H](CC(C)C)NC(=O)[C@H](CCCN)NC(=O)[C@@H](NC(=O)[C@H](Cc1ccc(O)cc1)NC(=O)[C@H](CCC(N)=O)NC(=O)[C@H](CC(N)=O)NC(=O)[C@H](Cc1c[nH]cn1)NC(=O)[C@H](Cc1ccccc1)NC(=O)[C@@H]1CCCN1C(=O)[C@H](N)Cc1ccccc1)C(C)C`
stdout: 0.2
